# testedTarget: T1, ECF22_1147
# T1 chain: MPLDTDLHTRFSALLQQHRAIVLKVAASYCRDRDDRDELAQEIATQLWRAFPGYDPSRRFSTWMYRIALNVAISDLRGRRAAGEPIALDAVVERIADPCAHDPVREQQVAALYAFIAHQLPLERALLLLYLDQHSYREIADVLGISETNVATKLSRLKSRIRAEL
assayReadout: fold repression

{"binder": "AS16_973 (protein) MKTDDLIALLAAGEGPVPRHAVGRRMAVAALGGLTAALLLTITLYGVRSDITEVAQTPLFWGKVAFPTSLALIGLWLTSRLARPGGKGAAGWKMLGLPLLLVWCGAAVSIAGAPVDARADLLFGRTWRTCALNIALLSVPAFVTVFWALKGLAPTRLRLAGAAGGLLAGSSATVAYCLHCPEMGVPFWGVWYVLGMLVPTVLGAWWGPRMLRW", "numericValue": 1.2}
{"binder": "AS33_423 (protein) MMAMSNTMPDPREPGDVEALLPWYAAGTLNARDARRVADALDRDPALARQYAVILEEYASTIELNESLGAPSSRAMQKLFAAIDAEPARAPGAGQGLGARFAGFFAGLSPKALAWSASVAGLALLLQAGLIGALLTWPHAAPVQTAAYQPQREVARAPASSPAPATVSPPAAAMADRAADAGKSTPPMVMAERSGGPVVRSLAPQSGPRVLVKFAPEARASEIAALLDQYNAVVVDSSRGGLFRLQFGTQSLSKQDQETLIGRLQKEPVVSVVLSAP", "numericValue": 9.02}

Hey, just so you know, these numbers are from paper PMC3817407.
